# Tested on: Plasma
# Protocol Description: Cmax in plasma of Swiss albino mouse at 30 mg/kg, po
# Format: ADME, organism-based
# Set-up: dose 30 mg/kg, route oral
# Condition Label: in vivo
// values below are reported Cmax
Provide the reading as a plain figure in µM.

Smiles Notation | Cmax, µM
CC(C)Oc1cccc(-c2cnc(N3CCC(C(N)=O)CC3)s2)c1 | 3.72

Alright, here's another compound for you.
Log: Plasma, compound O=C(O)C1CCN(c2ncc(-c3ccc4c(c3)OCCCO4)s2)CC1 , Cmax = 44.4

----------
# Protocol Description: Half-life in human serum
# Format: ADME, cell-free
Measured Parameter: half-life (min)
Report the figure in min without appending any unit label.

Compound | half-life (min)
O=C([O-])CCCc1ccccc1.[Na+] [SODIUM PHENYLBUTYRATE] | 90

The reported half-life of the compound CCCC(=O)[O-].[Na+] [SODIUM BUTYRATE] was 6
